Listed here are binders together with their documented pEC50.
Biological target: T1, Cynomolgus SLC34A2 (Cynomolgus, UniProt A0A2K5UHY1 1-690)
T1 construct: whole, on cells; also called Cyno SLC34A2
T1 sequence: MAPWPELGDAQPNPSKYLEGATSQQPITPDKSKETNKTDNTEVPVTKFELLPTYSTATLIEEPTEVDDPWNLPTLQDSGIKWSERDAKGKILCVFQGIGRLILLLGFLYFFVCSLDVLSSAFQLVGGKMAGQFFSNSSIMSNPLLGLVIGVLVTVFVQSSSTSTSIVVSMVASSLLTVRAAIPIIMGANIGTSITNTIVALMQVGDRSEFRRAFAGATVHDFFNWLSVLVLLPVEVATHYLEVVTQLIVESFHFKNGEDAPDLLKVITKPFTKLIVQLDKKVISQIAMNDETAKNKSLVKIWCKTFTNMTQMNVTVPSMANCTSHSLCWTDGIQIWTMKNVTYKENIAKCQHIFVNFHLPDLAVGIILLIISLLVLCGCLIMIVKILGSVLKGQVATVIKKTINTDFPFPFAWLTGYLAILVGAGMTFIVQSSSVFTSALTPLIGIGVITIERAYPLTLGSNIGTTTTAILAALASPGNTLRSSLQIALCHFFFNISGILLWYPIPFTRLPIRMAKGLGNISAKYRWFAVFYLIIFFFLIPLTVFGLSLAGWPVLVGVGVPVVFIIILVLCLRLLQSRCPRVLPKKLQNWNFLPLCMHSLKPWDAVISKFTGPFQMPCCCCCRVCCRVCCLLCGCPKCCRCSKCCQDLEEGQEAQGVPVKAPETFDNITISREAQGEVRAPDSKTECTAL
Test: FACS, cells expressing Cynomolgus SLC34A2
Field pEC50 (float): negative decimal logarithm of the concentration in molar.

// known answers, use as guide
{"BINDER": "63A11D5B4.p1.z9 hIgG1 (antibody, V domains shown, humanized hIgG1) VH: QVQLVQSGAEVVKPGASVKMSCKTSGYTFITYNMHWVRQAPGQGLEWIGAIYPGSGDTSYNQKFKGRVTLTADKSTSTAYMELSSLRSEDTAVYYCSISTIITTGAVDYWGQGTLVTVSS VL: DIQMTQSPSSLSASVGDRVTITCKASQDVGTAVAWYQQKPGKVPKLLIYWTSTRHTGVPSRFSGSGSGTDFTLTISSLQPEDVATYYCQQYSRIPLTFGGGTKVEIK", "pEC50": 8.35}
{"BINDER": "62G10E4G8.p3.z15 hIgG1 (antibody, V domains shown, humanized hIgG1) VH: QVQLVQSGAEVVKPGASVKMSCKASGYTFPSYITHWVKQAPGQGLEWIGAIYPGNADTSYIQKFKGRATLTADKSTSTAYMELSSLRSEDTAVYYCARGTYGTSAWFTYWGQGTLVTVSS VL: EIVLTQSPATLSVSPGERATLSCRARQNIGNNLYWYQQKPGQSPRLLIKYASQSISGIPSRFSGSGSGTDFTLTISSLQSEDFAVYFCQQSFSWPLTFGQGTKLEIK", "pEC50": 8.79}
{"BINDER": "30H9B8F9.p1.z5 hIgG1 (antibody, V domains shown, humanized hIgG1) VH: QVQLVQSGAEVKKPGASVKVSCKTSGYTFTTNNMHWVRQAPGQGLEWIGAIYPGSGATAYNQKFKGRVTMTADTSTSTVYMELSSLRSEDTAVYYCARGMYGHGAMDYWGQGTLVTVSS VL: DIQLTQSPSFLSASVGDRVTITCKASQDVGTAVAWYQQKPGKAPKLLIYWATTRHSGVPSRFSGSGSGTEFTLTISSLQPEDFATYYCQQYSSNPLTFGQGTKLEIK", "pEC50": 9.01}

Next binder, please.
Give a short answer stating reported pEC50 for 91C9F1.p1.z7 hIgG1 (antibody, V domains shown, humanized hIgG1) VH: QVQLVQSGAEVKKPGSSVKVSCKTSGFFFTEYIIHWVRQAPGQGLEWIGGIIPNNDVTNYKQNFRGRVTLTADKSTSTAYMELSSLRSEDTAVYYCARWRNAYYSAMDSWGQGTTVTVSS VL: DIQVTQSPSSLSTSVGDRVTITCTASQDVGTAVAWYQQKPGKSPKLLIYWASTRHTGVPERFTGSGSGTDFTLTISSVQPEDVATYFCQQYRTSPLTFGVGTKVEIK . 7.34
